System: EJ cells
Assay type: cell-based
condition details: human, 48 h
Non-standard residues stand in square brackets, D forms with d. Residues, ends and D or L forms follow the SMILES beside them. *: point of attachment. Coumarin3carbonyl(7-OH) = O=C(c1cc2ccc(O)cc2oc1=O)*; Acetyl(thymin-1-yl) = Cc1cn(CC(=O)*)c(=O)[nH]c1=O; PEG8 = NCCOCCOCCOCCOCCOCCOCCOCCOCCC(=O)O
measured property: pIC50
Answers are plain numbers, as −log10 of the molar value.

Example molecules with recorded pIC50:
[
  {
    "molecule": "Cc1cn(CC(=O)NCCCC[C@H](NC(=O)c2cc3ccc(O)cc3oc2=O)C(=O)N[C@@H](CC(C)C)C(=O)N[C@H](C(=O)N[C@@H](Cc2ccccc2)C(=O)N[C@@H](Cc2ccccc2)C(=O)NCCOCCOCCOCCOCCOCCOCCOCCOCCC(=O)NCCOCCOCCOCCOCCOCCOCCOCCOCCC(=O)O)C(C)C)c(=O)[nH]c1=O [FF-T, HCA-K(T)LVFF-PEG2] ({Coumarin3carbonyl(7-OH)}-K(Acetyl(thymin-1-yl))LVFF[PEG8][PEG8]-OH)",
    "measured property": "pIC50",
    "quantitative readout": 3.74
  },
  {
    "molecule": "Cc1cn(CC(=O)NCCCC[C@H](NC(=O)c2cc3ccc(O)cc3oc2=O)C(=O)N[C@@H](CC(C)C)C(=O)N[C@H](C(=O)NCCOCCOCCOCCOCCOCCOCCOCCOCCC(=O)N[C@H](C(=O)N[C@@H](CCCCN)C(=O)N[C@@H](CCCNC(=N)N)C(=O)N[C@@H](CCCCN)C(=O)N[C@@H](CCCCN)C(=O)N[C@@H](CCCCN)C(=O)N2CCC[C@H]2C(=O)O)C(C)C)C(C)C)c(=O)[nH]c1=O [NLS-T, HCA-K(T)LV-PEG-VKRKKKP] ({Coumarin3carbonyl(7-OH)}-K(Acetyl(thymin-1-yl))LV[PEG8]VKRKKKP-OH)",
    "measured property": "pIC50",
    "quantitative readout": 3.91
  }
]

// switching to the query molecule
Prompt: Requested read-out: pIC50. Entry: CC(C)C[C@H](NC(=O)[C@H](CCCCN)NC(=O)c1cc2ccc(O)cc2oc1=O)C(=O)N[C@H](C(=O)N[C@@H](Cc1ccccc1)C(=O)N[C@@H](Cc1ccccc1)C(=O)NCCOCCOCCOCCOCCOCCOCCOCCOCCC(=O)N[C@H](C(=O)N[C@@H](CCCCN)C(=O)N[C@@H](CCCNC(=N)N)C(=O)N[C@@H](CCCCN)C(=O)N[C@@H](CCCCN)C(=O)N[C@@H](CCCCN)C(=O)N1CCC[C@H]1C(=O)O)C(C)C)C(C)C [NLS-FF, HCA-KLVFF-PEG-VKRKKKP] ({Coumarin3carbonyl(7-OH)}-KLVFF[PEG8]VKRKKKP-OH)
Response: 3.56

* * *

Tested on: T24 cells
experiment summary: CCK-8 cytotoxicity assay, T24 cells
Format: cell-based, human
condition details: human, 48 h
Non-standard residues stand in square brackets, D forms with d. Residues, ends and D or L forms follow the SMILES beside them. *: point of attachment. Coumarin3carbonyl(7-OH) = O=C(c1cc2ccc(O)cc2oc1=O)*; Acetyl(thymin-1-yl) = Cc1cn(CC(=O)*)c(=O)[nH]c1=O; PEG8 = NCCOCCOCCOCCOCCOCCOCCOCCOCCC(=O)O
measured property: IC50 (µM)
Give bare numbers, in µM.

Example molecules with recorded IC50:
[
  {
    "molecule": "Cc1cn(CC(=O)NCCCC[C@H](NC(=O)c2cc3ccc(O)cc3oc2=O)C(=O)N[C@@H](CC(C)C)C(=O)N[C@H](C(=O)NCCOCCOCCOCCOCCOCCOCCOCCOCCC(=O)N[C@H](C(=O)N[C@@H](CCCCN)C(=O)N[C@@H](CCCNC(=N)N)C(=O)N[C@@H](CCCCN)C(=O)N[C@@H](CCCCN)C(=O)N[C@@H](CCCCN)C(=O)N2CCC[C@H]2C(=O)O)C(C)C)C(C)C)c(=O)[nH]c1=O [NLS-T, HCA-K(T)LV-PEG-VKRKKKP] ({Coumarin3carbonyl(7-OH)}-K(Acetyl(thymin-1-yl))LV[PEG8]VKRKKKP-OH)",
    "IC50 (µM)": 119
  },
  {
    "molecule": "Cc1cn(CC(=O)NCCCC[C@H](NC(=O)c2cc3ccc(O)cc3oc2=O)C(=O)N[C@@H](CC(C)C)C(=O)N[C@H](C(=O)N[C@@H](Cc2ccccc2)C(=O)N[C@@H](Cc2ccccc2)C(=O)NCCOCCOCCOCCOCCOCCOCCOCCOCCC(=O)NCCOCCOCCOCCOCCOCCOCCOCCOCCC(=O)O)C(C)C)c(=O)[nH]c1=O [FF-T, HCA-K(T)LVFF-PEG2] ({Coumarin3carbonyl(7-OH)}-K(Acetyl(thymin-1-yl))LVFF[PEG8][PEG8]-OH)",
    "IC50 (µM)": 408
  }
]

// switching to the query molecule
Prompt: Requested read-out: IC50. Entry: CC(C)C[C@H](NC(=O)[C@H](CCCCN)NC(=O)c1cc2ccc(O)cc2oc1=O)C(=O)N[C@H](C(=O)N[C@@H](Cc1ccccc1)C(=O)N[C@@H](Cc1ccccc1)C(=O)NCCOCCOCCOCCOCCOCCOCCOCCOCCC(=O)N[C@H](C(=O)N[C@@H](CCCCN)C(=O)N[C@@H](CCCNC(=N)N)C(=O)N[C@@H](CCCCN)C(=O)N[C@@H](CCCCN)C(=O)N[C@@H](CCCCN)C(=O)N1CCC[C@H]1C(=O)O)C(C)C)C(C)C [NLS-FF, HCA-KLVFF-PEG-VKRKKKP] ({Coumarin3carbonyl(7-OH)}-KLVFF[PEG8]VKRKKKP-OH)
Response: 532

* * *

Assignment: determine reported IC50 for the given compounds.
Tested on: RT-112 cells
Format: cell-based
condition details: human, 48 h
Non-standard residues stand in square brackets, D forms with d. Residues, ends and D or L forms follow the SMILES beside them. *: point of attachment. Coumarin3carbonyl(7-OH) = O=C(c1cc2ccc(O)cc2oc1=O)*; Acetyl(thymin-1-yl) = Cc1cn(CC(=O)*)c(=O)[nH]c1=O; PEG8 = NCCOCCOCCOCCOCCOCCOCCOCCOCCC(=O)O
One number for each entry, in µM.

Example compounds with recorded IC50:
[
  {
    "compound": "Cc1cn(CC(=O)NCCCC[C@H](NC(=O)c2cc3ccc(O)cc3oc2=O)C(=O)N[C@@H](CC(C)C)C(=O)N[C@H](C(=O)NCCOCCOCCOCCOCCOCCOCCOCCOCCC(=O)N[C@H](C(=O)N[C@@H](CCCCN)C(=O)N[C@@H](CCCNC(=N)N)C(=O)N[C@@H](CCCCN)C(=O)N[C@@H](CCCCN)C(=O)N[C@@H](CCCCN)C(=O)N2CCC[C@H]2C(=O)O)C(C)C)C(C)C)c(=O)[nH]c1=O [NLS-T, HCA-K(T)LV-PEG-VKRKKKP] ({Coumarin3carbonyl(7-OH)}-K(Acetyl(thymin-1-yl))LV[PEG8]VKRKKKP-OH)",
    "unit abbrev": "µM",
    "IC50": 107
  },
  {
    "compound": "CC(C)C[C@H](NC(=O)[C@H](CCCCN)NC(=O)c1cc2ccc(O)cc2oc1=O)C(=O)N[C@H](C(=O)N[C@@H](Cc1ccccc1)C(=O)N[C@@H](Cc1ccccc1)C(=O)NCCOCCOCCOCCOCCOCCOCCOCCOCCC(=O)N[C@H](C(=O)N[C@@H](CCCCN)C(=O)N[C@@H](CCCNC(=N)N)C(=O)N[C@@H](CCCCN)C(=O)N[C@@H](CCCCN)C(=O)N[C@@H](CCCCN)C(=O)N1CCC[C@H]1C(=O)O)C(C)C)C(C)C [NLS-FF, HCA-KLVFF-PEG-VKRKKKP] ({Coumarin3carbonyl(7-OH)}-KLVFF[PEG8]VKRKKKP-OH)",
    "unit abbrev": "µM",
    "IC50": 376
  }
]

Prompt: Requested read-out: IC50. Entry: Cc1cn(CC(=O)NCCCC[C@H](NC(=O)c2cc3ccc(O)cc3oc2=O)C(=O)N[C@@H](CC(C)C)C(=O)N[C@H](C(=O)N[C@@H](Cc2ccccc2)C(=O)N[C@@H](Cc2ccccc2)C(=O)NCCOCCOCCOCCOCCOCCOCCOCCOCCC(=O)NCCOCCOCCOCCOCCOCCOCCOCCOCCC(=O)O)C(C)C)c(=O)[nH]c1=O [FF-T, HCA-K(T)LVFF-PEG2] ({Coumarin3carbonyl(7-OH)}-K(Acetyl(thymin-1-yl))LVFF[PEG8][PEG8]-OH)
Response: 356

Attribution: paper PMC10903983
